# experimentalTarget: large-conductance calcium-activated potassium (BK) channel (Rattus norvegicus, UniProt Q62976)
# Construct: gene Kcnma1; native BK channels in freshly isolated rat coronary arterial smooth muscle cells (inside-out patches)
# Sequence (Q62976 whole entry): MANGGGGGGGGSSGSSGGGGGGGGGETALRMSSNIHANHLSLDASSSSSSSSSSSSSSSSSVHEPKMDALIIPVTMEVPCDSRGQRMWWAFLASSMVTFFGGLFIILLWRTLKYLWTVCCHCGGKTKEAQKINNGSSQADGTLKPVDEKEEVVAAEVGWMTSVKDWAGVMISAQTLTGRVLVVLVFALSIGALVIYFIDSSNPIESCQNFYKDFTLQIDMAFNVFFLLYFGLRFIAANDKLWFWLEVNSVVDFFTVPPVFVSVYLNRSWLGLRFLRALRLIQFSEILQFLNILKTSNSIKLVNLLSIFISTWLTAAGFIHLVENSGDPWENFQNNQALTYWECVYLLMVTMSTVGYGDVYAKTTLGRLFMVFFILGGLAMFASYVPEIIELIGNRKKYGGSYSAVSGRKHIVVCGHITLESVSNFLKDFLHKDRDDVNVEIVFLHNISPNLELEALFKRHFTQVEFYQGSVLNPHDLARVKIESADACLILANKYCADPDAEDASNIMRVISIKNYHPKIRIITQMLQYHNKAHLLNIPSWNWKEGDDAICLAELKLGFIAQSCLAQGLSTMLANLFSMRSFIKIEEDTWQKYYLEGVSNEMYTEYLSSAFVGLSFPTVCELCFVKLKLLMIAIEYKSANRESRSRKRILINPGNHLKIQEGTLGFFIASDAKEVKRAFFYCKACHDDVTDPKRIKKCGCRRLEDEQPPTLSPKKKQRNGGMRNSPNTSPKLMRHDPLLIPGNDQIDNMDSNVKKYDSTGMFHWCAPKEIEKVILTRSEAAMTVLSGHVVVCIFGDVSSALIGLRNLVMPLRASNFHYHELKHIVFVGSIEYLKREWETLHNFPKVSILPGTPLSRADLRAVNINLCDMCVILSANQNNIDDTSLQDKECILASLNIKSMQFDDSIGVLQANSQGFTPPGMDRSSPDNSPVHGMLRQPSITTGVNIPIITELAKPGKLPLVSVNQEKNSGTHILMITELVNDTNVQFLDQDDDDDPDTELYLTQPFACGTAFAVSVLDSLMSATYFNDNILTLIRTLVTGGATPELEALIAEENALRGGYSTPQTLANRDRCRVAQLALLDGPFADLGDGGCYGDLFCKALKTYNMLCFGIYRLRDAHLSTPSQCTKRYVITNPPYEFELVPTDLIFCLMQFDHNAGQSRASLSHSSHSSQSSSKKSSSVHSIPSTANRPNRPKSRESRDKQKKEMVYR
# experimentNotes: inside-out single-channel patch clamp (open probability at +[…] mV)
# Assay type: cell-based
property: EC50

Query: Determine from records and report EC50 for CC/C=C\C/C=C\C/C=C\C/C=C\C/C=C\C/C=C\CCC(=O)O
Result: 3.37 µM
